target: Cytoplasmic tyrosine-protein kinase BMX (Homo sapiens) (UniProt P51813); conditions: at 1 µM;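 further: reported value is the mean percent inhibition of BMX, from the GSK PKIS kinase inhibitor screen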
Sequence (P51813 whole entry): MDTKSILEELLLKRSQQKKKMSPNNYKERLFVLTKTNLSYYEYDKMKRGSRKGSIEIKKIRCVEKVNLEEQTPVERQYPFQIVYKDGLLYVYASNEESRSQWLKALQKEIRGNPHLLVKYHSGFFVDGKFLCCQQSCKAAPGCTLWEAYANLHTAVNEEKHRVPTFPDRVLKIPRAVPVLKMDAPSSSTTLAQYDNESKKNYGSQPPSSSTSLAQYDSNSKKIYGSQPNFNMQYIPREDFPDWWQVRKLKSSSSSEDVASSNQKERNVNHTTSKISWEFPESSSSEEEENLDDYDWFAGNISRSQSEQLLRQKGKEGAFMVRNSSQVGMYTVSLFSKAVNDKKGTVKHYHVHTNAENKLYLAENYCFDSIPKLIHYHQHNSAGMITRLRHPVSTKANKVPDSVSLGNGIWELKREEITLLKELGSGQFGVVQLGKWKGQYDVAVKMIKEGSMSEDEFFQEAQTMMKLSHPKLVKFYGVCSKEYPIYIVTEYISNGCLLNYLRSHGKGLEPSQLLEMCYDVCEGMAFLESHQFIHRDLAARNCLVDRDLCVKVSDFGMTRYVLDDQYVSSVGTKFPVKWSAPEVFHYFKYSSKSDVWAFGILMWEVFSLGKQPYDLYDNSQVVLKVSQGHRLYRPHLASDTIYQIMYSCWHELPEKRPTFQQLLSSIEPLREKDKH
observable: inhibition (%)
Form entry: value (%) — number only.

Worked examples follow.
## Input Provide inhibition value for the following compound: `N#Cc1cccc(Nc2nccc(-c3cnn4ncccc34)n2)c1`
## Output 39.7

## Input Provide inhibition value for the following compound: `NS(=O)(=O)c1ccc(Nc2cc(-c3cccc(O)c3)n[nH]2)cc1`
## Output 4.72

## Input Provide inhibition value for the following compound: `O=S(=O)(CCOCc1ccc(-c2ccc3ncnc(Nc4ccc(OCc5cccc(F)c5)c(Cl)c4)c3c2)o1)c1ccccc1`
## Output 1.08

// next entry
## Input Provide inhibition value for the following compound: `COC(=O)c1cncc(/C=C/c2c(C)cc(O)cc2C)c1`
## Output 29.6

###

molecular target: Glycogen synthase kinase-3 beta (Homo sapiens) (UniProt P49841); details: at 0.1 µM;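 further: values are mean percent inhibition of GSK3B activity, from the GSK Published Kinase Inhibitor Set (PKIS) screening dataset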
Sequence (P49841 whole entry, looked up): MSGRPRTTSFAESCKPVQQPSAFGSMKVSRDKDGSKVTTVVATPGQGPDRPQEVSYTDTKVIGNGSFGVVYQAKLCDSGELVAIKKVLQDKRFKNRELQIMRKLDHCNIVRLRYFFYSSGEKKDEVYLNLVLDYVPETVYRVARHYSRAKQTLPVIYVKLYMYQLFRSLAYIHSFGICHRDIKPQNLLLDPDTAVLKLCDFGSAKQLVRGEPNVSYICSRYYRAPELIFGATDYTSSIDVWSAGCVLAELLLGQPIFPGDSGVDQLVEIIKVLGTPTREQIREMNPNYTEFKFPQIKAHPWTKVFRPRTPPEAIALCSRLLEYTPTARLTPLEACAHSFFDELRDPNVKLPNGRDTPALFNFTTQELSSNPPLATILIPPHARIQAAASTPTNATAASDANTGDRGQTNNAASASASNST
Label y for high-side inhibition (at or above 2%) and n for low-side inhibition (below it).

# count of solved cases: 2
## Input Reported inhibition at or above 2%? `COc1ccc(-c2nn3ncccc3c2-c2ccnc(Nc3cccc(C(F)(F)F)c3)n2)cc1`
## Output n

## Input Reported inhibition at or above 2%? `OCc1ccc(-c2nc(-c3ccccn3)c(-c3ccc4c(c3)OCO4)[nH]2)cc1`
## Output y

Others:
## Input Reported inhibition at or above 2%? `c1ccc(Nc2ncc(-c3ccccc3)o2)cc1`
## Output y

## Input Reported inhibition at or above 2%? `NS(=O)(=O)c1cccc(-c2cc3ccncc3cc2OCc2ccccc2)c1`
## Output n

## Input Reported inhibition at or above 2%? `COc1cc2ncnc(Nc3ccc4c(cnn4Cc4ccccc4)c3)c2cc1OC`
## Output y

###

molecular target: Dual specificity protein kinase TTK (Homo sapiens) (UniProt P33981); conditions: at 1 µM;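 further: reported figures are mean TTK inhibition at 1 µM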
Sequence (P33981 whole entry): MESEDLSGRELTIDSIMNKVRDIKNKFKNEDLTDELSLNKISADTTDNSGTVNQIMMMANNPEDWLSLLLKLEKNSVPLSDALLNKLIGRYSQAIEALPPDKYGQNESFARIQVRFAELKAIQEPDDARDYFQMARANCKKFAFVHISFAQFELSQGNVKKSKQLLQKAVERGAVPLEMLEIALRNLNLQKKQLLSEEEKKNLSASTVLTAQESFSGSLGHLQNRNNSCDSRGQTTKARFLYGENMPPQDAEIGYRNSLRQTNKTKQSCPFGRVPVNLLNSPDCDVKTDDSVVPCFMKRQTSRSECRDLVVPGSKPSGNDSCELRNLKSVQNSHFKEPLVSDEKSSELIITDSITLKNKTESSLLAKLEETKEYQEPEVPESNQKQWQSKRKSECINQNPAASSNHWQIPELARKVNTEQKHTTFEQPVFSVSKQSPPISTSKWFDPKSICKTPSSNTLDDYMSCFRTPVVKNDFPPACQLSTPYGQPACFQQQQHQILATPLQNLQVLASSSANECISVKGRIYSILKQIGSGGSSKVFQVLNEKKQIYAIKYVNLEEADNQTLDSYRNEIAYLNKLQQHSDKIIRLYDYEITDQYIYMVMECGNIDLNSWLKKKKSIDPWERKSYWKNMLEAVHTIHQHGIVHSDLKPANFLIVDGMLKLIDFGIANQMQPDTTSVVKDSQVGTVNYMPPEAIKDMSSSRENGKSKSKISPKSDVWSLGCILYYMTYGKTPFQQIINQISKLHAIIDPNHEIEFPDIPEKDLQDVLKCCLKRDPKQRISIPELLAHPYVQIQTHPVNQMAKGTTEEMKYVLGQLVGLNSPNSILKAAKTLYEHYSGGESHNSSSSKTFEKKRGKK
inhibition for assorted compounds
Form entry: value (%) — number only.

## Input Provide inhibition value for the following compound: `O=C1Nc2ccc(-c3cccnc3)cc2C1=Cc1cc(Br)c(O)c(Br)c1`
## Output 7.48

## Input Provide inhibition value for the following compound: `[O-][S+]1CCN(Cc2ccc(-c3ccc4ncnc(Nc5ccc(OCc6ccccc6)c(Cl)c5)c4c3)o2)CC1`
## Output 8.12

## Input Provide inhibition value for the following compound: `COc1ccc(-c2nn3ncccc3c2-c2ccnc(Nc3cccc(C(F)(F)F)c3)n2)cc1`
## Output 6.51

## Input Provide inhibition value for the following compound: `NS(=O)(=O)c1ccc(Nc2cc(-c3cccc(O)c3)n[nH]2)cc1`
## Output 0.24

## Input Provide inhibition value for the following compound: `Cc1nc(-c2ccccc2)n2nc(NCCCN3CCOCC3)ncc12`
## Output 5.84

## Input Provide inhibition value for the following compound: `CC(C)c1ccc(Nc2nccc(-c3cnn4ncccc34)n2)cc1`
## Output 22.2

## Input Provide inhibition value for the following compound: `Cc1ccc2c(-c3ccnc(Nc4ccc5c(c4)OCCO5)n3)c(-c3ccc(C(F)(F)F)cc3)nn2n1`
## Output 4.26

## Input Provide inhibition value for the following compound: `C[C@@H](Oc1cc(-n2cnc3ccc(OCC4CCN(C)CC4)cc32)sc1C(N)=O)c1ccccc1C(F)(F)F`
## Output 1.44

## Input Provide inhibition value for the following compound: `c1ccc(Nc2ncc(-c3ccccc3)o2)cc1`
## Output 16.1

## Input Provide inhibition value for the following compound: `CN(C)c1cc2c(Nc3ccc4c(cnn4Cc4ccccc4)c3)ncnc2cn1`
## Output 6.41

## Input Provide inhibition value for the following compound: `FC(F)(F)c1ccc(-c2nn3ncccc3c2-c2ccnc(Nc3ccc4c(c3)OCCO4)n2)cc1`
## Output 2.98

## Input Provide inhibition value for the following compound: `Cc1cc(-c2ccccn2)cc(C)c1/C=C/c1cncc(-c2nn[nH]n2)c1`
## Output 9.95

###

target: Tyrosine-protein kinase Fgr (Homo sapiens) (UniProt P09769); conditions: at 1 µM;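 further: value reported as mean kinase inhibition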
Sequence (P09769 2-529 limits assumed): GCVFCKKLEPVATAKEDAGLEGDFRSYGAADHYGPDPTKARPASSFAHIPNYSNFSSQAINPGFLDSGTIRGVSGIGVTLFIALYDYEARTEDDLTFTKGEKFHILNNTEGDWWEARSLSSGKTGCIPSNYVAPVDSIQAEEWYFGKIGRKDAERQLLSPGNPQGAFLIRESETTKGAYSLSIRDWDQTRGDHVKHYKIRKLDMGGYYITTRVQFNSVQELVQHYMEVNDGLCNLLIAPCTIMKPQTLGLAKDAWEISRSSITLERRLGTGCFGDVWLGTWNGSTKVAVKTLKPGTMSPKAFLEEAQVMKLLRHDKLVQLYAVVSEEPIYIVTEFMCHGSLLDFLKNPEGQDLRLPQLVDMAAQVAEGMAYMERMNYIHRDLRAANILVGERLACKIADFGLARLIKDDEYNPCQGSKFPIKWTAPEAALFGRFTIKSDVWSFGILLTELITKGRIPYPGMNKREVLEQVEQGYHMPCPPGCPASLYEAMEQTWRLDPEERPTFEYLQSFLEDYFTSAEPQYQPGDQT
Label yes (1) for high-side inhibition (at or above 6%) and no (0) for low-side inhibition (below it).

## Input Reported inhibition at or above 6%? `COc1cc2ncn(-c3cc(OCc4ccccc4S(C)(=O)=O)c(C#N)s3)c2cc1OC`
## Output yes (1)

###

target: Tyrosine-protein kinase Blk (Homo sapiens) (UniProt P51451); settings: at 1 µM;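 further: mean percent inhibition of BLK kinase activity, from GSK PKIS kinase inhibitor set profiling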
Sequence (P51451 2-505 limits assumed): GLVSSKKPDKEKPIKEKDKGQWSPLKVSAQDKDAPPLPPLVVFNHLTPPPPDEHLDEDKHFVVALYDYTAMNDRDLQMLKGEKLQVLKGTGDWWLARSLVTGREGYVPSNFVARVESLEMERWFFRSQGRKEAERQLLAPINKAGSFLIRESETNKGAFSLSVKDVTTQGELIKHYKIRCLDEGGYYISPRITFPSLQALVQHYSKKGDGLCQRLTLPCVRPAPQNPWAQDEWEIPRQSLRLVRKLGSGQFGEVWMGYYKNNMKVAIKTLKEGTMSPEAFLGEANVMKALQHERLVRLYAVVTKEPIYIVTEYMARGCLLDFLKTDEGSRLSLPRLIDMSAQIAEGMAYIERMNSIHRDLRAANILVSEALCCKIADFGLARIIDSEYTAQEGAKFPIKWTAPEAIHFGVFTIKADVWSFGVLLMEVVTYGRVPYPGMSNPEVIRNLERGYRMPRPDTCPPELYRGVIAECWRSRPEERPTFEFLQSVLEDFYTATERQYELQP
observable: inhibition (%)
Form entry: value (%) — number only.

## Input Provide inhibition value for the following compound: `O=C1Nc2ccc(-c3cccnc3)cc2C1=Cc1cc(Br)c(O)c(Br)c1`
## Output 10.8

## Input Provide inhibition value for the following compound: `N#Cc1cccc(Nc2nccc(-c3cnn4ncccc34)n2)c1`
## Output 26.5

## Input Provide inhibition value for the following compound: `NS(=O)(=O)c1ccc(Nc2cc(-c3cccc(O)c3)n[nH]2)cc1`
## Output 6.67

Others:
## Input Provide inhibition value for the following compound: `c1ccc(Cc2nc3ccc(Nc4ncnc5ccccc45)cc3[nH]2)cc1`
## Output 7.6

## Input Provide inhibition value for the following compound: `NS(=O)(=O)c1ccc(-c2cc3ccncc3cc2OCc2ccccc2)cc1`
## Output 3.91

## Input Provide inhibition value for the following compound: `COc1cc(/C=N/Nc2ncnc3c2cnn3C(C)C)ccc1O`
## Output 45

## Input Provide inhibition value for the following compound: `CN(C)C(=O)O[C@H]1CN[C@H](C#Cc2cc3ncnc(Nc4ccc(OCc5cccc(F)c5)c(Cl)c4)c3s2)C1`
## Output 4.23

## Input Provide inhibition value for the following compound: `NS(=O)(=O)c1cccc(-c2cc3ccncc3cc2OCc2ccccc2)c1`
## Output 6.09

## Input Provide inhibition value for the following compound: `Oc1cccc(-c2nc(-c3ccccc3)[nH]c2-c2ccncc2)c1`
## Output 8.82

## Input Provide inhibition value for the following compound: `ON=C1CCc2cc(-c3nc(C4CCNCC4)[nH]c3-c3ccncc3)ccc21`
## Output 2.67

## Input Provide inhibition value for the following compound: `CCS(=O)(=O)c1ccc(OC)c(Nc2nccc(N(C)c3ccc4c(C)n[nH]c4c3)n2)c1`
## Output 67.5

## Input Provide inhibition value for the following compound: `Nc1nccc(-c2c(-c3ccc(F)cc3)nn3cc(C(F)(F)F)ccc23)n1`
## Output 1.08

## Input Provide inhibition value for the following compound: `FC(F)(F)c1ccc(-c2nn3ncccc3c2-c2ccnc(Nc3ccc4c(c3)OCCO4)n2)cc1`
## Output 15.7

###

biological target: Serine/threonine-protein kinase pim-2 (Homo sapiens) (UniProt Q9P1W9); conditions: at 1 µM;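 further: each value is a mean of the inhibition measurements against the kinase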
Sequence (Q9P1W9 whole entry, looked up): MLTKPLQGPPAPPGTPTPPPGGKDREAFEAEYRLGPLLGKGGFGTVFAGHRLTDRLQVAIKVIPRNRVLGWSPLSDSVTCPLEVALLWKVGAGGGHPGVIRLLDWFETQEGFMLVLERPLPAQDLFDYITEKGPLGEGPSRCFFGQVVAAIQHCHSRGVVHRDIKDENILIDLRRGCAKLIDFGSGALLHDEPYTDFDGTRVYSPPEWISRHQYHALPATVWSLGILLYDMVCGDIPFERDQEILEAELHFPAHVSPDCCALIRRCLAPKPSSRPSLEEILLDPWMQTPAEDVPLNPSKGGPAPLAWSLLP
observable: inhibition (%)
Form entry: value (%) — number only.

Worked examples follow.
## Input Provide inhibition value for the following compound: `CN1CCN(C(=O)c2ccc(NC(=O)Nc3ccc(N(C)c4ccnc(Nc5ccc(CS(C)(=O)=O)cc5)n4)cc3)cc2)CC1`
## Output -0.35

## Input Provide inhibition value for the following compound: `NC(=O)c1cccc(Nc2nccc(Nc3cccc(F)c3)n2)c1`
## Output 0.31

## Input Provide inhibition value for the following compound: `Cc1ccc(Nc2ccnc(Nc3cccc(C(N)=O)c3)n2)cc1O`
## Output -3.06

## Input Provide inhibition value for the following compound: `COC(=O)c1ccc2c(c1)C(=Cc1cc(Br)c(O)c(Br)c1)C(=O)N2`
## Output 53.2

// next entry
## Input Provide inhibition value for the following compound: `O=C1Nc2ccc(-c3cccnc3)cc2C1=Cc1cc(Br)c(O)c(Br)c1`
## Output 46.5

###

inhibition for assorted compounds
target: Tyrosine-protein kinase SYK (Homo sapiens); settings: at 0.1 µM;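 further: reported percentages are mean inhibition values for SYK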

## Input Provide inhibition value for the following compound: `COC(=O)Nc1nc2cc(Oc3ccc(NC(=O)Nc4cccc(Br)c4)cc3)ccc2[nH]1`
## Output -1.46%

Others:
## Input Provide inhibition value for the following compound: `Cc1ccc(NC(=O)CC2CC2)cc1-c1ccc(C(=O)NCC2CC2)cc1`
## Output -2.32%

## Input Provide inhibition value for the following compound: `FC(F)(F)c1ccc(-c2nn3ncccc3c2-c2ccnc(Nc3ccc4c(c3)OCCO4)n2)cc1`
## Output 3.37%

## Input Provide inhibition value for the following compound: `Cc1ccc(C(=O)NC2CC2)cc1-c1ccc2[nH]ncc2c1`
## Output -1.71%

## Input Provide inhibition value for the following compound: `Cc1nc(-c2ccccc2)n2nc(NCCCN3CCOCC3)ncc12`
## Output 1.44%

## Input Provide inhibition value for the following compound: `COC(=O)c1ccc2c(c1)C(=Cc1cc(Br)c(O)c(Br)c1)C(=O)N2`
## Output 0.74%

## Input Provide inhibition value for the following compound: `CN(c1ccc(NC(=O)Nc2ccc(OC(F)(F)F)cc2)cc1)c1ccnc(Nc2cccc(S(N)(=O)=O)c2)n1`
## Output -1.49%

## Input Provide inhibition value for the following compound: `CCn1c(-c2nonc2N)nc2c(C#CC(C)(C)O)nc(OCCNC)cc21`
## Output 1.27%

## Input Provide inhibition value for the following compound: `CCOc1nccc2c1nc(-c1nonc1N)n2CC`
## Output 1.77%

## Input Provide inhibition value for the following compound: `CN(C)CCCn1c(-c2nonc2N)nc2cnccc21`
## Output -4.3%

## Input Provide inhibition value for the following compound: `O=S(=O)(CCOCc1ccc(-c2ccc3ncnc(Nc4ccc(OCc5cccc(F)c5)c(Cl)c4)c3c2)o1)c1ccccc1`
## Output 1.93%

## Input Provide inhibition value for the following compound: `C[C@@H](Oc1cc(-n2cnc3ccc(OC[C@@H](O)CO)cc32)sc1C(N)=O)c1ccccc1Cl`
## Output 1.72%

## Input Provide inhibition value for the following compound: `COC(=O)c1cncc(/C=C/c2c(C)cc(O)cc2C)c1`
## Output -5.74%

## Input Provide inhibition value for the following compound: `COc1ccc(-c2nn3ncccc3c2-c2ccnc(Nc3cccc(C(F)(F)F)c3)n2)cc1`
## Output -1.06%

## Input Provide inhibition value for the following compound: `CN1CCN(C(=O)c2ccc(NC(=O)Nc3ccc(N(C)c4ccnc(Nc5ccc(CS(C)(=O)=O)cc5)n4)cc3)cc2)CC1`
## Output -0.89%

## Input Provide inhibition value for the following compound: `COc1cc2ncnc(Nc3ccc(C)c(O)c3)c2cc1OC`
## Output -4.37%

## Input Provide inhibition value for the following compound: `NC(=O)c1cccc(Nc2nccc(Nc3cccc(F)c3)n2)c1`
## Output 0.43%

Taken from ChEMBL document CHEMBL1961873.
